TARGET OR TEST SYSTEM: GAL4 DBD-CfEcR(DEF)/VP16AD-MmRXRE (Choristoneura fumiferana)
EXPERIMENTAL DETAILS: 13B3 Assay (CHO stable cell line, luciferase reporter)
PARTICULARS: 3.3 uM ligand; RLU ligand treated / RLU DMSO treated cells; average of two wells
READOUT TYPE: Fold Induction, 13B3 Assay, 3.3 uM
// return a plain number; no unit text

Check out these entries, answers already filled in.
{"MOLECULE": "COc1cccc(C(=O)NN(C(=O)c2cc(C)cc(C)c2)C(C)(C)C)c1[N+](=O)[O-] [RG-100568]", "TARGET OR TEST SYSTEM": "GAL4 DBD-CfEcR(DEF)/VP16AD-MmRXRE (Choristoneura fumiferana)", "Fold Induction, 13B3 Assay, 3.3 uM": 2}
{"MOLECULE": "CCc1ccc(C(=O)NN(C(=O)c2cc(C)c(C)c(Cl)c2)C(C)(C)C)cc1 [RG-101863]", "TARGET OR TEST SYSTEM": "GAL4 DBD-CfEcR(DEF)/VP16AD-MmRXRE (Choristoneura fumiferana)", "Fold Induction, 13B3 Assay, 3.3 uM": 3187}
{"MOLECULE": "COc1cc(C(=O)N(NC(=O)c2cccc(O)c2C)C(C)(C)C)cc(OC)c1C [RG-115220]", "TARGET OR TEST SYSTEM": "GAL4 DBD-CfEcR(DEF)/VP16AD-MmRXRE (Choristoneura fumiferana)", "Fold Induction, 13B3 Assay, 3.3 uM": 5}

Please turn your attention to the following entry.
query: Answer with the recorded Fold Induction, 13B3 Assay, 3.3 uM for the molecule listed here: CCc1c(OC)cccc1C(=O)NN(C(=O)c1cc(C)cc(COC(C)=O)c1)C(C)(C)C [RG-115223]
result: 8

====

Recorded Papp, B-to-A Avg for the following compounds
System: Caco-2 monolayers
EXPERIMENTAL DETAILS: Bi-directional permeability, CACO-2
Type: in vitro ADME
PARTICULARS: Caco-2

Check out these entries, answers already filled in.
{"COMPOUND": "CCCC(N(NC(=O)c1cccc(OC)c1C)C(=O)c1cc(C)cc(C)c1)C(C)(C)C (stereo not shown)", "Papp, B-to-A Avg": "17.1 10^−6 cm/s"}
{"COMPOUND": "COc1cnccc1C(=O)N(NC(=O)c1cccc(O)c1C)C(C)(C)C", "Papp, B-to-A Avg": "30.7 10^−6 cm/s"}

Please turn your attention to the following entry.
query: Answer with the recorded Papp, B-to-A Avg for the compound listed here: CCc1c(OC)cccc1C(=O)NN(C(=O)c1ccccc1S(=O)(=O)O)C(C)(C)C
result: 1.61 10^−6 cm/s

====

Recorded Fold Induction, 27-63 Assay, 33 uM for the following compounds
TARGET OR TEST SYSTEM: GAL4 DBD (1-147)-CfEcR(DEF)/VP16AD-βRXREF-LmUSPEF (Choristoneura fumiferana, UniProt O77240)
EXPERIMENTAL DETAILS: cell-based
PARTICULARS: 33 uM ligand; RLU ligand treated / RLU DMSO treated cells; average of two wells
// return a plain number; no unit text

Check out these entries, answers already filled in.
{"COMPOUND": "CCc1c(C(=O)NN(C(=O)c2cc(Cl)nc(Cl)c2)C(C)(C)C)ccc2c1OCCO2 [RG-115297]", "Fold Induction, 27-63 Assay, 33 uM": 946}
{"COMPOUND": "CCCC(N(NC(=O)c1cccc(OC)c1CC)C(=O)c1cc(C)cc(C)c1)C(C)(C)C (stereo not shown) [RG-115830]", "Fold Induction, 27-63 Assay, 33 uM": 353}
{"COMPOUND": "CCc1c(C(=O)NN(C(=O)c2ccc(F)cc2)C(C)(C)C)ccc2c1OCOC2 [RG-100574]", "Fold Induction, 27-63 Assay, 33 uM": 21}
{"COMPOUND": "COc1cc(C(=O)N(NC(=O)c2cccc(OC)c2C)C(C)(C)C)ccc1C [RG-100768]", "Fold Induction, 27-63 Assay, 33 uM": 1852}
{"COMPOUND": "CCc1c(OC)cccc1C(=O)NN(C(=O)c1cc(Cl)ccc1OC)C(C)(C)C [RG-115253]", "Fold Induction, 27-63 Assay, 33 uM": 910}

query: Answer with the recorded Fold Induction, 27-63 Assay, 33 uM for the compound listed here: COc1ccccc1C(=O)N(NC(=O)c1ccc2c(c1C)CCCO2)C(C)(C)C [RG-115102]
result: 971

query: Answer with the recorded Fold Induction, 27-63 Assay, 33 uM for the compound listed here: COc1cc(C)ccc1C(=O)N(NC(=O)c1cccc(OC)c1C)C(C)(C)C [RG-100769]
result: 1556

====

Recorded Fold Induction, Z3 Assay, 3.3 uM for the following compounds
TARGET OR TEST SYSTEM: Bombyx mori EcR (VP16 fusion, CVBE switch construct) (Bombyx mori, UniProt P49881)
Sequence (P49881 86-606): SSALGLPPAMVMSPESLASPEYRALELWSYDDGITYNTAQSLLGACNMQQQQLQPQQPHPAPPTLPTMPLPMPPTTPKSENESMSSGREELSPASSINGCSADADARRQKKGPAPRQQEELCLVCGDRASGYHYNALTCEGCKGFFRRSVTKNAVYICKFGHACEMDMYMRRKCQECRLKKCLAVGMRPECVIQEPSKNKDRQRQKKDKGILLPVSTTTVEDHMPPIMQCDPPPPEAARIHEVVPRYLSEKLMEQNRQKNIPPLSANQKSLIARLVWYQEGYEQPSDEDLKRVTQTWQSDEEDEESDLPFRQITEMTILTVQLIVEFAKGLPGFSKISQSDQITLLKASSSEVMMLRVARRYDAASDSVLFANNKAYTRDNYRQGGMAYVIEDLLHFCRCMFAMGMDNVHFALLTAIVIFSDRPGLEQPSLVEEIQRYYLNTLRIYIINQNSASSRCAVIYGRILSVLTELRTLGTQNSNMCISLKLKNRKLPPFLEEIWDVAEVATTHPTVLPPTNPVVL
Sequence (P19793 whole entry partner, the tested form may be a part): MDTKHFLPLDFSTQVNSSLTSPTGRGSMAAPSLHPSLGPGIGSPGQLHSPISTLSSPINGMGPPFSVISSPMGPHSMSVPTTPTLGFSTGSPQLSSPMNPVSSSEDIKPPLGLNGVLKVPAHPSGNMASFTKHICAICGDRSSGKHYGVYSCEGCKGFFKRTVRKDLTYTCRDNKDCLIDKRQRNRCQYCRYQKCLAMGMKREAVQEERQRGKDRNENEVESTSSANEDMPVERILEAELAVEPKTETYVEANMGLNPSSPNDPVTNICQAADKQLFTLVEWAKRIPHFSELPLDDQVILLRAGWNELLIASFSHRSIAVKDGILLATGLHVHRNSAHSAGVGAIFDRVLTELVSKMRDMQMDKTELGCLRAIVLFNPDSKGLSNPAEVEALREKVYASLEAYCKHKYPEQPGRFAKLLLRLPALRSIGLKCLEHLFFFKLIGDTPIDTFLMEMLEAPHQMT
EXPERIMENTAL DETAILS: Z3 Assay (HEK-293 cells with CVBE and 6XEcRE LacZ, β-galactosidase reporter)
PARTICULARS: 3.3 uM ligand; ligand treated / DMSO treated cells; average of two wells
// return a plain number; no unit text

Check out these entries, answers already filled in.
{"COMPOUND": "CCc1c(OC)cccc1C(=O)NN(C(=O)c1cc(C)cc(C)c1)C(CC)C(C)(C)C (centres unmarked)", "Fold Induction, Z3 Assay, 3.3 uM": 1564}
{"COMPOUND": "Cc1ccc(C(=O)NN(C(=O)c2cc(C)cc(C)c2)C(C)(C)C)cc1", "Fold Induction, Z3 Assay, 3.3 uM": 1151}
{"COMPOUND": "COCc1c(OC)cccc1C(=O)NN(C(=O)c1cc(C)cc(C)c1)C(C)(C)C", "Fold Induction, Z3 Assay, 3.3 uM": 7}

query: Give the observed Fold Induction, Z3 Assay, 3.3 uM of COc1cccc(C(=O)N(NC(=O)c2ccc3c(c2C)OCCO3)C(C)(C)C)c1 for Bombyx mori EcR (VP16 fusion, CVBE switch construct) (Bombyx mori, UniProt P49881).
result: 870

query: Give the observed Fold Induction, Z3 Assay, 3.3 uM of Cc1cc(C)cc(C(=O)N(NC(=O)c2ccc3c(c2F)COCO3)C(C)(C)C)c1 for Bombyx mori EcR (VP16 fusion, CVBE switch construct) (Bombyx mori, UniProt P49881).
result: 54

query: Give the observed Fold Induction, Z3 Assay, 3.3 uM of CCc1c(C(=O)NN(C(=O)c2cc(F)ccc2F)C(C)(C)C)ccc2c1OCCO2 for Bombyx mori EcR (VP16 fusion, CVBE switch construct) (Bombyx mori, UniProt P49881).
result: 199

query: Give the observed Fold Induction, Z3 Assay, 3.3 uM of CCc1c(OC)cccc1C(=O)NN(C(=O)c1cc(OC)c(OC(C)=O)c(OC)c1)C(C)(C)C for Bombyx mori EcR (VP16 fusion, CVBE switch construct) (Bombyx mori, UniProt P49881).
result: 386

query: Give the observed Fold Induction, Z3 Assay, 3.3 uM of Cc1ccc([N+](=O)[O-])c(C(=O)N(NC(=O)c2ccc3c(c2C)OCCO3)C(C)(C)C)c1 for Bombyx mori EcR (VP16 fusion, CVBE switch construct) (Bombyx mori, UniProt P49881).
result: 337

query: Give the observed Fold Induction, Z3 Assay, 3.3 uM of CCc1c(OC)cccc1C(=O)NN(C(=O)c1cc(OC)c(C)c(OC)c1)C(C)(C)C#N for Bombyx mori EcR (VP16 fusion, CVBE switch construct) (Bombyx mori, UniProt P49881).
result: 571

====

Recorded Z3 assay Rel Max FI for the following molecules
TARGET OR TEST SYSTEM: Bombyx mori EcR (VP16 fusion, CVBE switch construct) (Bombyx mori, UniProt P49881)
EXPERIMENTAL DETAILS: Z3 Assay (HEK-293 cells with CVBE and 6XEcRE LacZ, β-galactosidase reporter)
PARTICULARS: maximum fold induction at any concentration relative to that of GS-E ligand; HEK-293 Z3 cells
// return a plain number; no unit text

Check out these entries, answers already filled in.
{"SMILES ENTRY": "CCc1c(OC)cccc1C(=O)NN(C(=O)c1cc(C)cc(C)c1)C(C)(C)C", "TARGET OR TEST SYSTEM": "Bombyx mori EcR (VP16 fusion, CVBE switch construct) (Bombyx mori, UniProt P49881)", "TEST RESULT": 1}
{"SMILES ENTRY": "COCc1c(OC)cccc1C(=O)NN(C(=O)c1cc(C)cc(C)c1)C(C)(C)C", "TARGET OR TEST SYSTEM": "Bombyx mori EcR (VP16 fusion, CVBE switch construct) (Bombyx mori, UniProt P49881)", "TEST RESULT": 0.36}

query: Give the observed Z3 assay Rel Max FI of Cc1c(C(=O)NN(C(=O)c2cccc(F)c2)C(C)(C)C)ccc2c1CCCO2 for Bombyx mori EcR (VP16 fusion, CVBE switch construct) (Bombyx mori, UniProt P49881).
result: 0.893

query: Give the observed Z3 assay Rel Max FI of CCc1c(OC)cccc1C(=O)NN(C(=O)c1cccc2c1OCO2)C(C)(C)C for Bombyx mori EcR (VP16 fusion, CVBE switch construct) (Bombyx mori, UniProt P49881).
result: 0.878

query: Give the observed Z3 assay Rel Max FI of COc1cnccc1C(=O)N(NC(=O)c1cccc(O)c1C)C(C)(C)C for Bombyx mori EcR (VP16 fusion, CVBE switch construct) (Bombyx mori, UniProt P49881).
result: 0.686

Numbers sourced from patent US9102648B1.
